These data points were gathered from patent US20260097029A1.

system: U2OS cells; assay: U2OS cell proliferation (confluency), IncuCyte live cell imaging; assay type: cell-based; settings: confluency, read-out: IC50 (concentration of drug that inhibits 50% of cell growth)
RESULT TYPE: pIC50
The read-out pIC50 is expressed as -log10 of concentration in moles per litre.

Incoming: Which pIC50 is reported for this molecule? "CCN1CCCc2cc(CN(C3CCCC3)S(=O)(=O)c3ccc(NCc4c[nH]cn4)cc3)ccc21"
Outgoing: 4.81
